Measured values drawn from paper PMC4197335 for this set.

target: GADD45β/MKK7 complex (Homo sapiens, UniProt O14733); construct: Full-length human (h)MKK7 was expressed as a protein fused to an N-terminal GST tag (GST-MKK7); made in house; assay: ELISA GADD45β/MKK7 competition assay; assay type: binding; conditions: Table S2; peptide at 42 nM; read-out: % inhibition (ELISA)
Sequence (O14733 whole entry, the tested form may be a part, one chain of several): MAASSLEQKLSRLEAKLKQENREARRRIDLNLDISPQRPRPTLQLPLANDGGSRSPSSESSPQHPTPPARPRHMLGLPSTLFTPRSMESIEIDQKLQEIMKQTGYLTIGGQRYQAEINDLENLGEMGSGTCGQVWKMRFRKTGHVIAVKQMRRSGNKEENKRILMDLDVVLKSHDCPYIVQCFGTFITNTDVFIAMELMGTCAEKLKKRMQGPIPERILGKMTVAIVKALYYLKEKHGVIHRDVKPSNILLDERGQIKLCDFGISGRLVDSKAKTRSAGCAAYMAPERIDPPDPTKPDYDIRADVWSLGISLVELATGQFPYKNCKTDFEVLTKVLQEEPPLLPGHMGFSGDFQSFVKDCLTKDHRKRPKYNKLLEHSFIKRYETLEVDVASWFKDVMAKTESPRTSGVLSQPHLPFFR
Where a SMILES comes first, the peptide text is derived from it.
Metric Name: inhibition at 0.042 µM (%)
Respond with the bare value in %.

Worked cases, answers included:
{"Molecule": "CC(=O)N[C@@H](Cc1ccc(O)cc1)C(=O)N[C@@H](CCC(=O)O)C(=O)N[C@@H](CCCNC(=N)N)C(=O)N[C@@H](Cc1ccccc1)C(N)=O", "Metric Name": "inhibition at 0.042 µM", "Reported Measurement": 93}
{"Molecule": "CC(=O)N[C@@H](Cc1ccc(O)cc1)C(=O)N[C@@H](CC(=O)O)C(=O)N[C@@H](CCCCN)C(=O)N[C@@H](Cc1c[nH]c2ccccc12)C(N)=O [Ac-YDKW-NH2] (Ac-YDKW-NH2)", "Metric Name": "inhibition at 0.042 µM", "Reported Measurement": 43}

Look up inhibition at 0.042 µM with GADD45β/MKK7 complex (Homo sapiens, UniProt O14733) for this molecule: CC(=O)N[C@@H](Cc1c[nH]c2ccccc12)C(=O)N[C@@H](CC(=O)O)C(=O)N[C@@H](CCCCN)C(=O)N[C@@H](Cc1c[nH]c2ccccc12)C(N)=O [Ac-WDKW-NH2] (Ac-WDKW-NH2)
69

Next up: CC(=O)N[C@@H](Cc1c[nH]c2ccccc12)C(=O)N[C@@H](CC(=O)O)C(=O)N[C@@H](Cc1c[nH]cn1)C(=O)N[C@@H](Cc1ccccc1)C(N)=O [Ac-WDHF-NH2] (Ac-WDHF-NH2)
28

Now the molecule CC(=O)N[C@@H](Cc1ccc(O)cc1)C(=O)N[C@@H](CCC(=O)O)C(=O)N[C@@H](CCCCN)C(=O)N[C@@H](Cc1c[nH]c2ccccc12)C(N)=O [Ac-YEKW-NH2] (Ac-YEKW-NH2)
22
